Target System: Man(b1-4)GlcNAc
Assay Name: glycan array binding signal (z-score within array); higher = stronger binding
Condition Parameters: glycan notation: IUPAC condensed, linker removed
This excerpt belongs to a sample that is enriched for the strongest signals.
Observed Property: glycan array binding signal (z-score)

Given Epa6 (Candida glabrata), Q6DTM7_CANGB (protein) MGSSHHHHHHSSGLVPRGSHMKDDYSSSLSNNNLGWTDPTEFPLGCSPNVTTPKNGLSMELYSYDYLKSGSNPCWDAAYLDPNYPRTGYKSHRLLAKVENVAGNINFYYHAPMGCTSLFDTLPQAYNYRTPLTMTNFTMLLYGYFKPKVTGYHTFTISADDLLFVNFGAGNAFDCCKRESSADDFGNYQAYAVWGSQTAKDDLTVHLDAGLYYPIRIFFNNRDNDGALSLTLKTESDPNPVIDFSDYFYSFDDTKDGCPGLVSYDTS , state its recorded glycan array binding signal (z-score).
-0.332

Item under review: Pbx1CASH domain (Cryptococcus neoformans) (protein) MDETKPLWGNPRADGISLACKDSIVERNVVYDATDGAIVLFGSAGSTVKNNHVYARTRVILGGINLVDYEPWDGDYTNVKVHHNHLYALGRYFKVGIVIGPASWSDDTESVVHSASVTDNEFSGGYWGYGIVVASAKNFEVLRNKVIWDGEQGVARFSGVPGS . Reported glycan array binding signal (z-score)?
-0.348

Can you share its glycan array binding signal (z-score)? I mean this binder: Epf (Streptococcus pyogenes) (protein) GDHGPEFNGVMVVKAAEAEELPDDLMNFKGTWEVSADGSSGRFFSKGATDSYVFHLIPAKDVKKPGWREHNEVKDSYIKIDKQSIAARYKTSTTAPYSVAFKVNTKSLIKDHDYKITFEQGQIASGITVDYRIGSAFNKTTDDSFKISDESKYASNVKIEGEEQGFKQREQGDKTISFRTLKEGPMSLVLLSKVEKKPQGDLDVEFKNLKIIDVTNPSQLDKGVAYVGNKNVQLTLKSDDGRTNFEGDEISLFNSRGELLQTVTVTKDQQNPISITLSEDQAKSLKNKEKLKVSIKQKQSKKTSKDFFFEVGIDPKVEAKQKEKLLELDKVKKQIEDSINGDAWLPEKPVDLQGDHGLSAWSHPQFEK
-0.471
